In this section, each of the molecules is paired with its reported z-score.
- ASSAY_OVERVIEW: S. cerevisiae growth modulation with rapamycin, primary screen, strain BY4716, OD600, 96 h (AID 1091); also: test concentration not given here
- MEASUREMENT_CONTEXT: higher = more signal, called active from +8 up or from −8 down
Reply: number alone, nothing else.

C=C(CCCC)C(=O)CC[C@@H](OC(=O)c1cccnc1)c1ccc(CO)o1: 0.275

Data request: GET /values?readout=z-score&item= CCCCN1CC=CC23O[C@@H]4C=CCOC(=O)[C@@H]4[C@H]2C(=O)N(CCCCCO)[C@@H]3C1=O (stereo not given in full)
Data returned: -0.279

Data request: If you can, please state the reported z-score value of COC(=O)c1c(CC[C@@H](CO)NC(=O)N[C@H](Cn2cc(Cc3ccccc3)nn2)C(C)C)oc(C(C)=O)c1C(=O)OC .
Data returned: 0.158

Data request: z-score lookup needed for [N-]=[N+]=NCc1ccccc1[C@H]1OC(c2ccc(OCCCO)cc2)=N[C@@]1(Cc1ccccc1)C(=O)NCc1ccccc1 , thanks.
Data returned: 6.58

Data request: Which z-score reading was recorded for the molecule C=CCOC(=O)[C@H]1[C@@H]2C(=O)O[C@@H](c3ccccc3)[C@@H](c3ccccc3)N2[C@@H](c2ccc(OCCOC(=O)[C@H]3C[C@H]4C(=O)N[C@@H](CC(C)C)C(=O)N4[C@H]3c3ccc(O)cc3)cc2)[C@]12C(=O)Nc1ccc(I)cc12 ?
Data returned: 0.333

Data request: Record request: z-score value, item CC(C)C(=C=CC[C@@H](O)c1ccccc1OCCO)CCO
Data returned: -2.09

----------
- ASSAY_OVERVIEW: small-molecule microarray binders of probe aWnt5a, primary screen, biochemical, biotinylated probe, 635/667 nm fluorescence (AID 1113);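 also: score merges 667 nm fluorescence intensity with signal-to-noise per printed feature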
- MEASUREMENT_CONTEXT: higher = more signal
Please mark class 1 if the recorded composite z-score is equal to or greater than 0.02, and class 0 if it falls below.

COc1cc2c(cc1OC)CN(C(=O)[C@@H]1[C@H]3C(=O)O[C@H](c4ccccc4)[C@H](c4ccccc4)N3[C@H](c3ccc(O)cc3)[C@@]13C(=O)Nc1ccc(C#CC4(O)CCCCCC4)cc13)CC2: class 0
C=CCC(OC(C)=O)[C@@H]1[C@@H](N(Cc2ccc(-c3cccc(C(F)(F)F)c3)o2)C(=O)c2ccc(-c3ccccc3)cc2)c2cc(OCCCO)ccc2N1C(=O)c1ccc(-c2ccccc2)cc1 (stereo partly drawn): class 1
O=C1c2ccccc2[C@@]2(Cc3ccccc3N(CCN3CCOCC3)C2=O)[C@H](c2ccc(CO)cc2)N1Cc1ccccc1: class 0
C=C[C@H](COC(C)=O)N(C(=O)OC(C)(C)C)S(=O)(=O)c1ccc(Br)cc1: class 1
COCCOC(=O)N1C(=O)[C@@]2(c3cc(C#CCCO)ccc31)[C@H](C(=O)Nc1nc3ccccc3s1)[C@H]1C(=O)O[C@H](c3ccccc3)[C@H](c3ccccc3)N1[C@@H]2c1ccc(OCCO)cc1: class 1

Data request: State whether the measured composite z-score reaches 0.02, counting equality as reaching it, for COCCOC(=O)N1C(=O)[C@@]2(c3cc(C#CC4=CCCCC4)ccc31)[C@H](C(=O)N1CCc3cc(OC)c(OC)cc3C1)[C@H]1C(=O)O[C@H](c3ccccc3)[C@H](c3ccccc3)N1[C@@H]2c1ccc(OCCO)cc1
Data returned: class 1

Data request: Has CC(C)(C)OC(=O)CC[C@@]1(C(N)=O)N=C(c2ccc(OCCCO)cc2)O[C@@H]1c1ccccc1 a recorded composite z-score greater than or equal to 0.02?
Data returned: class 0

----------
- ASSAY_OVERVIEW: basal 3T3-L1 adipocyte mitochondrial potential changes, profiling panel, cell-based, JC-1 fluorescence, 3T3-L1 adipocytes, 24 h, 100 nL compound (AID 1168); also: test concentration not given here
- MEASUREMENT_CONTEXT: JC-1 mitochondrial fluorescence, higher = more signal, called active from +8 up or from −8 down
Where z-score equals or exceeds 0.09, the correct label is T; where it does not, the label is F.

COc1ccc([C@H]2C[C@H]3C(Br)=C[C@@H]2C(=O)[C@]32CO2)cc1: T

Data request: Is the recorded value of z-score equal to or greater than 0.09 for this molecule? C[N+](C)(C)CCCCNC(=O)[C@H]1C[C@H]2C(=O)N[C@@H](Cc3ccccc3)C(=O)N2[C@H]1c1ccc(O)cc1
Data returned: F

Data request: Could you please find out whether [N-]=[N+]=NCc1ccccc1C[C@]1(C(=O)N2CCOCC2)N=C(c2ccc(OCCCO)cc2)O[C@H]1c1ccccc1N=[N+]=[N-] has z-score that meets 0.09 or exceeds it?
Data returned: F

----------
- STUDY_SYSTEM: Albumin (Bos taurus) (UniProt P02769)
- Sequence (P02769 whole entry, looked up): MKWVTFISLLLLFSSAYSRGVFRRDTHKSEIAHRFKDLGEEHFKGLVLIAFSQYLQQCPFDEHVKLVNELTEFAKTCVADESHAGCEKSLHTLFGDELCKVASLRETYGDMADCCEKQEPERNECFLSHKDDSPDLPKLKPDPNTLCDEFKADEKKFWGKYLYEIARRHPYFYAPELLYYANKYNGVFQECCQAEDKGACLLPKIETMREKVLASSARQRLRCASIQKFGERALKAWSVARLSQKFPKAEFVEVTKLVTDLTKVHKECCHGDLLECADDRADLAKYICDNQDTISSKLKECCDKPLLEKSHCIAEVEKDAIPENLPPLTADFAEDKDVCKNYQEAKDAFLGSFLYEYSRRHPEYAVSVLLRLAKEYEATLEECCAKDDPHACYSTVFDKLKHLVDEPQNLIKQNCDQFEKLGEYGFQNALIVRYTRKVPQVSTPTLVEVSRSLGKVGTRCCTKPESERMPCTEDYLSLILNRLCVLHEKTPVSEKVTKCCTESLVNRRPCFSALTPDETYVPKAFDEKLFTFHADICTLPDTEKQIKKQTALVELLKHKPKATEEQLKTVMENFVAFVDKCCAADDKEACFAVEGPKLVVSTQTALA
- ASSAY_OVERVIEW: bovine serum albumin binders on microarray, profiling panel, artefact control for SMM control protein annotation, biochemical, small-molecule microarray, Alexa647 label, 635/667 nm fluorescence (AID 1118);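 also: score merges 667 nm emission intensity and signal-to-noise per printed compound spot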
- MEASUREMENT_CONTEXT: BSA-A647 binding, fluorescence 635 nm, higher = more signal
Let's look at some compounds and their measured composite z-score.
Respond numerically, and do not add a unit to the figure.

Example entries begin here.
COC(=O)[C@@]1(Cc2ccc(OC)cc2)[C@H]2c3cc(C(=O)N4CCCC4)n(Cc4ccc(OC)c(OC)c4)c3C[C@H]2CN1C(=O)c1ccccc1: 1.08
[N-]=[N+]=NCc1ccccc1[C@@H]1OC(c2ccc(OCCCO)cc2)=N[C@]1(Cc1ccccc1N=[N+]=[N-])C(=O)N1CCOCC1: 0.809

Data request: Albumin (Bos taurus) (UniProt P02769) / composite z-score / CCCCCC1=C2CNC(CCC)(C(=O)OC)C=C2C(C)C1=O (centres undefined) : value?
Data returned: 0.912

Data request: Fill in the recorded composite z-score for this compound, with Albumin (Bos taurus) (UniProt P02769) as test system: COc1ccc([Si](C)(C)[C@@H]2[C@@H](CC(=O)N3Cc4ccccc4C[C@H]3CO)O[C@]3(C(=O)N(C)c4c(Br)cc(C)cc43)[C@H]2C)cc1
Data returned: 0.494

Data request: Request: composite z-score, test system Albumin (Bos taurus) (UniProt P02769), entry COc1ccc([Si](C)(C)[C@@H]2[C@@H](CCO)O[C@]3(C(=O)N(Cc4ccc(N5C(=O)COc6ccccc65)cc4)c4ccccc43)[C@H]2C)cc1
Data returned: 0.671

Data request: // fetch Albumin (Bos taurus) (UniProt P02769) composite z-score for [N-]=[N+]=NCc1ccccc1[C@H]1OC(c2ccc(OCCCO)cc2)=N[C@@]1(Cc1ccccc1)C(=O)NCc1ccccc1
Data returned: 0.882

Data request: Tell me reported composite z-score for C=CC[C@@]1(C(=O)NCc2ccccc2)N=C(c2ccc(OCCCO)cc2)O[C@@H]1c1ccccc1N=[N+]=[N-] , tested with Albumin (Bos taurus) (UniProt P02769).
Data returned: 0.98

Data request: Please tell me: composite z-score of CCOC1=C2C(CN(S(=O)(=O)c3ccc(C)cc3)C2c2ccc(C)cc2)C2C(=O)N(c3ccccc3)C(=O)C2C1 (centres undefined) , system Albumin (Bos taurus) (UniProt P02769)?
Data returned: 0.453

----------
- ASSAY_OVERVIEW: RPMI8226 myeloma cell viability, profiling panel, resazurin fluorescence, basal, 24 h, PK04 Diversity Set (AID 1180);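 also: RPMI8826 multiple myeloma cell line at 5000 cells per well; test concentration not given here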
- MEASUREMENT_CONTEXT: higher = more signal
REPORTED_ENDPOINT: z-score

Data request: What measured z-score goes with COC(=O)[C@@]1(Cc2ccccc2)[C@H]2c3cc(C(=O)N4CCCC4)n(CC4CC4)c3C[C@H]2CN1C(=O)c1ccccc1 ?
Data returned: -2.27

Data request: I would be grateful if you could share the reported z-score for COCCOC(=O)N1C(=O)[C@@]2(c3cc(C#Cc4ccc(OC)cc4)ccc31)[C@H](c1ccc(O)cc1)N1[C@H](c3ccccc3)[C@H](c3ccccc3)OC(=O)[C@H]1[C@@H]2C(=O)NC[C@H](O)c1ccccc1 .
Data returned: -0.573

Data request: Tell me the measured z-score of CCOC(=O)C1=CCC(c2ccccc2)N(S(=O)(=O)CC[Si](C)(C)C)C1 (stereo not given) , please.
Data returned: 0.681

Data request: Which z-score value is on record for Cc1ccc(C(C)CC(O)C2C=CC3C(=O)N(c4ccccc4)C(=O)C3N2Nc2ccc([N+](=O)[O-])cc2)o1 (stereo not given) ?
Data returned: 0.263

Data request: I'd like to know its z-score. The molecule in question is [N-]=[N+]=NCc1ccccc1C[C@]1(C(=O)N2CCOCC2)N=C(c2ccc(OCCCO)cc2)O[C@H]1c1ccccc1N=[N+]=[N-]
Data returned: -1.61

Data request: # z-score lookup, item CCCC=C(CCC)[C@@H](NC(=O)Oc1ccc(F)cc1)c1ccc(C(=O)OC)cc1
Data returned: -1.94

Data request: Quick one: z-score of CN1C(=O)C2C=CC(C(O)c3ccc(-c4ccccc4)s3)N(N(c3ccccc3)c3ccccc3)C2C1=O (stereo not given) ?
Data returned: -0.109

Data request: Which measured z-score value corresponds to CC(C)C(=C=CC[C@@H](O)c1ccccc1OCCO)CCO ?
Data returned: 1.28

Data request: Fill blank: measured z-score of the molecule C=CCN1C(=O)[C@]2(O[C@H](CCO)[C@@H]([Si](C)(C)c3ccc(OC)cc3)[C@@H]2C)c2cc(N3C(=O)c4cccc5cccc3c45)ccc21 is ____.
Data returned: -6.23

Data request: Look at this molecule and give its reported z-score. CCOC(=O)C[C@H]1[C@H](OC(=O)c2ccc(C(=O)c3ccccc3)cc2)[C@@H](NC(=O)c2ccc(-c3ccccc3)cc2)c2cc(OCCCO)ccc2N1C(=O)c1ccccc1
Data returned: -0.387

Data request: Need z-score, item C#CCN(CC=C(C)C)[C@H](CO)c1ccccc1
Data returned: -0.544

Data request: So what does the record say about z-score for O=C1O[C@H](c2ccccc2)[C@H](c2ccccc2)N2[C@H]1[C@@H](C(=O)O)[C@]1(C(=O)Nc3ccc(C#CC4=CCCCC4)cc31)[C@H]2c1ccccc1OCCO ?
Data returned: -6.63

Data request: # lookup: z-score of C[N+](C)(C)CCCCNC(=O)[C@H]1C[C@H]2C(=O)N[C@@H](Cc3ccccc3)C(=O)N2[C@H]1c1ccc(O)cc1
Data returned: -0.9

Data request: State the recorded z-score for this entry: C=CCN(Cc1ccccc1)C(=O)C(c1cccs1)N(CCOCCO)C(=O)/C=C\C(=O)O (stereo not given)
Data returned: 0.463

Data request: May I ask what z-score has been recorded for C=CCNC(=O)[C@H]1[C@@H]2C(=O)O[C@@H](c3ccccc3)[C@@H](c3ccccc3)N2[C@@H](c2ccc(O)cc2)[C@]12C(=O)N(C(=O)OCCOC)c1ccc(C#CCNC(N)=O)cc12 ?
Data returned: -0.17
